The values you see were collected from PubChem BioAssay AID2796.

I'd appreciate it if you could supply activation values for the items below.
# TEST SYSTEM: Aryl hydrocarbon receptor (Homo sapiens)
# TEST: AHR activators, primary screen, cell-based, luminescence, luciferase reporter, human (AID 2796);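 also: 0% = vehicle wells and 100% = reference agonist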
# CONDITION SET: AHR-responsive luciferase reporter cells, at 5 µM, stronger effect = higher value
The whole screen tested about 320,000 compounds, of which about 8,000 (2.5%) were called active. Shown is part of a subset that was picked to be rich in actives.

MOLECULE: CC(C)N(Cc1nc(-c2ccc3c(c2)OCO3)no1)CC1CCC(=O)N1 (stereo not given)
activation: 16.6% (inactive)
--
MOLECULE: CCn1ccnc1CN(C)Cc1nc(-c2ccc3c(c2)OCO3)no1
activation: 86.7% (active)
--
MOLECULE: O=C(c1ccc(-c2ccccc2)cc1)C1CCCN(C(=O)c2cncs2)C1 (stereo not given)
activation: 37.6% (inactive)
--
MOLECULE: COc1ccc(S(=O)(=O)N2CCC(C(=O)N3CCCC3)CC2)cc1C
activation: -0.5% (inactive)

Here's the next entry for you.
Exercise: Under Aryl hydrocarbon receptor (Homo sapiens): activation value of `C=CCC[C@@H](Cc1ccc(F)cc1)C(=O)O[C@H](CNC(=O)[C@H](CC=C)CC(=O)N(CCO)Cc1ccccc1)c1ccccc1` ?
Solution: -0.27% (inactive)

* * *

# TEST SYSTEM: Aryl hydrocarbon receptor (Homo sapiens) (UniProt P35869)
# Sequence (P35869 whole entry, looked up): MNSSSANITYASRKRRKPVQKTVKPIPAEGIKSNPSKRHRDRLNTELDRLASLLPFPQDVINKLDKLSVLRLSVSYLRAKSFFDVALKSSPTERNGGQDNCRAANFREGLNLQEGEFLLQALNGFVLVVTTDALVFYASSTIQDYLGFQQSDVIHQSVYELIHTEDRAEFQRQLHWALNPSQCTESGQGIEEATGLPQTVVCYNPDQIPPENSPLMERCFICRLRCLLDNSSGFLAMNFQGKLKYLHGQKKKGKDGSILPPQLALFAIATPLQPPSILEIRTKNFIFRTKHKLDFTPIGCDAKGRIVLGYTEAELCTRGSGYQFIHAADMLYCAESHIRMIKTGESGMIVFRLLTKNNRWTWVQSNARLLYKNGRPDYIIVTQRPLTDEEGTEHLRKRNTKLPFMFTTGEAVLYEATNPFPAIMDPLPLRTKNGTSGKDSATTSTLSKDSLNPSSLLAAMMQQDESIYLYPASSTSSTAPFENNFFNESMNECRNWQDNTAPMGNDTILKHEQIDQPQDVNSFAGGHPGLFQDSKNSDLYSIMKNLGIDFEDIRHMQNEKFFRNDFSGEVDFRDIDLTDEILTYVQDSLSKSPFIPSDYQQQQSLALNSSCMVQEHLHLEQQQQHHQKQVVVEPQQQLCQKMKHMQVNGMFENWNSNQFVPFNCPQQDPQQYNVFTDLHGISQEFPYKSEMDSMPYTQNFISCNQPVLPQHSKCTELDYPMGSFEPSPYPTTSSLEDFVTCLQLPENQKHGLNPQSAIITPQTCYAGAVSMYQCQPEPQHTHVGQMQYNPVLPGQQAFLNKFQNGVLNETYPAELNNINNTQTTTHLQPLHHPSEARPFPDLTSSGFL
# TEST: AHR activators, primary screen, cell-based, luminescence, luciferase reporter, human (AID 2796);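 also: 0% = vehicle wells and 100% = reference agonist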
# CONDITION SET: AHR-responsive luciferase reporter cells, at 5 µM, stronger effect = higher value
Out of some 320,000 compounds screened, about 8,000 (2.5%) were called active. Shown is part of a subset that was picked to be rich in actives.
OBSERVATION TYPE: activation (%)
One number for each entry, in %.

COMPOUND: CCCOc1ccc(Cl)cc1Nc1nc(NCCO)nc(N2CCCC2)n1
UNIT STRING: %
activation: 12.8
//
COMPOUND: O=C(NCc1ccco1)c1cccn2c(=O)c3c4c(sc3nc12)CCCC4
UNIT STRING: %
activation: 48.2
//
COMPOUND: CC(C)(C)Oc1ccccc1Nc1nc(NCCO)nc(N2CCCC2)n1
UNIT STRING: %
activation: 53.9
//
COMPOUND: CN1C(=O)/C(=N/OC(=O)c2ccccc2Br)c2ccccc21
UNIT STRING: %
activation: -2.06
//
COMPOUND: COc1c(O)cc2oc(-c3ccc(O)c(O)c3)cc(=O)c2c1O
UNIT STRING: %
activation: -2.83

Provide activation for all items below, preserving their order.
1. CCOc1ncccc1C(=O)NNC(=O)c1cccc(S(=O)(=O)Nc2ccccc2OC)c1
2. CC(NC(=O)Nc1ccc2c(c1)OCO2)c1ccncc1 (stereo not drawn)

Solution:
-1.36
29.5

* * *

I'd appreciate it if you could supply activation values for the items below.
# TEST SYSTEM: Aryl hydrocarbon receptor (Homo sapiens)
# TEST: AHR activators, primary screen, cell-based, luminescence, luciferase reporter, human (AID 2796);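 also: 0% = vehicle wells and 100% = reference agonist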
# CONDITION SET: AHR-responsive luciferase reporter cells, at 5 µM, stronger effect = higher value
Out of some 320,000 compounds screened, about 8,000 (2.5%) were called active. Many of the other results were omitted from the sample, so actives are more common in it than they were.

Some compounds with known activation results, for comparison:
COMPOUND: Cc1nc(Cl)c2oc3ccccc3c2n1
ASSAY VALUE: 4.72% (inactive)
--
COMPOUND: CC(=O)Nc1cccc(-c2csc(Nc3cccc(C)n3)n2)c1
ASSAY VALUE: 61.1% (active)
--
COMPOUND: O=C(Nc1nc(-c2cccnc2)cs1)c1ccccc1F
ASSAY VALUE: 11.7% (inactive)
--
COMPOUND: CCOC(=O)[C@H]1[C@H]2COc3ccccc3[C@@H]2N2C(=O)CN(Cc3ccccc3)C(=O)[C@@]12C
ASSAY VALUE: 0.71% (inactive)
--
COMPOUND: CCc1nc(Nc2ccc3nccnc3c2)c2oc3ccccc3c2n1
ASSAY VALUE: 85.3% (active)
--
COMPOUND: CC(=O)Nc1ccc(C(=O)Nc2nc(-c3cc(C)n(Cc4ccccc4)c3C)cs2)cc1
ASSAY VALUE: 2.48% (inactive)
--
COMPOUND: CN(Cc1cccc2ncccc12)C(=O)CC1C(=O)NCCN1Cc1ccc(F)cc1 (stereo not given)
ASSAY VALUE: -0.17% (inactive)
--
COMPOUND: COc1cc(S(=O)(=O)N2CCN=C2c2ccccc2)ccc1Cl
ASSAY VALUE: 1.21% (inactive)

Provide activation for all items below, preserving their order.
1. CC(=O)NCCC(=O)Nc1nc(-c2ccc3c(c2)OCCO3)cs1
2. C=CC[C@@H](Cc1ccc(F)cc1)C(=O)OC[C@H]1CCCN1C(=O)[C@H](CC=C)CC(=O)N(CCO)Cc1ccccc1

Solution:
1: 40.4% (inactive); 2: -1.59% (inactive)
